This section presents compounds with their documented ED50 values.
Tested on: phenyl-p-quinone writhing
Test: phenyl-p-quinone writhing assay (analgesia)
Format: in vivo, mice
Details: Mus musculus, sc; approximately 50% inhibition; read-out: ED50, inhibition of writhing
Quick note: give the figure in mg/kg, leave out the unit.

// below: answered compounds
Record smiles: Br.CN1CCC(c2nn(CC3CC3)c3ccccc23)CC1
Result units: mg/kg
Assay value: 1.1
//
Record smiles: CN1CCC(c2nn(C(=O)c3ccccc3)c3cc(F)ccc23)CC1.O=C(O)/C=C/C(=O)O
Result units: mg/kg
Assay value: 0.17

Request: Param readout = ED50; param system = phenyl-p-quinone writhing; param query = `CN1CCC(c2nn(-c3ccc(C(F)(F)F)cc3)c3ccccc23)CC1.Cl` ; response: value
Result: 9.8

Request: # repeat for `CN1CCC(c2nn(C(=O)c3ccccc3)c3ccccc23)CC1.Cl`
Result: 0.85

----------
System: metrazol lethality (pentylenetetrazol)
Experiment: metrazol lethality (MTZ), anticonvulsant activity
Type: in vivo, male mice
Settings: @ 60 mg/kg i.p.
Experimental: Anticonvulsant activity is also measured using the metrazol lethality (MTZ). In this procedure groups of male mice are utilized. Test drugs are prepared using distilled water and, if insoluble, a suitable surfactant is added. […] A dose range is run in the same manner as a time response except that 50 animals (10/group) are tested at the peak time of drug activity. […] An ED50 is calculated by means of linear regression.
This section presents compounds with their documented MTZ, % protected at indicated dose values.
Quick note: give the figure in %, leave out the unit.

// below: answered compounds
Compound: O=C(Nc1ccccc1)N1CCC(c2nn(-c3ccccc3)c3cc(F)ccc23)CC1 [Compound 2]
Assay value: 20

Compound: CNC(=O)N1CCC(c2nn(-c3ccccc3)c3cc(F)ccc23)CC1 [Compound 4]
Assay value: 0

We now examine a further compound.
Request: // lookup MTZ, % protected at indicated dose for O=CN1CCC(c2nn(-c3ccc(F)cc3)c3ccccc23)CC1 [Compound 13]
Result: 40

----------
Test system: supramaximal electroshock (extensor tonus)
Assay: supramaximal electroshock (SES) assay, anticonvulsant activity
Type: in vivo, male mouse
Details: Mus musculus, ip; 206 volts rms for 300 msec
This section presents compounds with their documented ED50 values.
Quick note: give the figure in mg/kg, leave out the unit.

// below: answered compounds
Record smiles: NC(=O)N1CCC(c2nn(-c3ccccc3)c3cc(Cl)ccc23)CC1
Assay value: 48.1
--
Record smiles: Br.NC(=O)N1CCC(c2nn(-c3ccc(C(F)(F)F)cc3)c3ccccc23)CC1
Assay value: 10.9
--
Record smiles: O=CN1CCC(c2nn(-c3ccc(F)cc3)c3ccccc23)CC1
Assay value: 24.7
--
Record smiles: CNC(=O)N1CCC(c2nn(-c3ccc(F)cc3)c3ccccc23)CC1
Assay value: 31.7
--
Record smiles: O=CN1CCC(c2nn(-c3ccc(C(F)(F)F)cc3)c3ccccc23)CC1
Assay value: 27.2

Request: // lookup ED50 for `CNC(=O)N1CCC(c2nn(-c3ccccc3F)c3ccccc23)CC1`
Result: 37

Request: # repeat for `CNC(=O)N1CCC(c2nn(-c3ccccc3)c3cc(F)ccc23)CC1`
Result: 64.9

Request: # repeat for `CNC(=O)N1CCC(c2nn(-c3ccc(C(F)(F)F)cc3)c3ccccc23)CC1`
Result: 44.9

----------
System: tetrabenazine induced ptosis
Experiment: tetrabenazine induced ptosis assay (antidepressant activity)
Assay type: in vivo, mice
Settings: Mus musculus, ip; estimated 50% inhibition; read-out: ED50, inhibition of ptosis
Binary label based on ED50 with cut-off 6 mg/kg: below gives met, not below gives not met.

Compound: CN1CCC(c2nn(-c3cccc(F)c3)c3ccccc23)CC1.Cl
Group: met
//
Compound: CN1CCC(c2nn(-c3ccccc3F)c3cc(F)ccc23)CC1.O=C(O)/C=C/C(=O)O
Group: not met
//
Compound: CN1CCC(c2nn(-c3ccccc3N)c3ccccc23)CC1.O=C(O)/C=C/C(=O)O
Group: not met
//
Compound: CN1CCC(c2nn(-c3ccccc3Cl)c3ccccc23)CC1.O=C(O)/C=C/C(=O)O
Group: met
//
Compound: CN(C)CCC=C1c2ccccc2CCc2ccccc21 [amitriptyline, reference compound]
Group: met

Request: is_below(ED50, 6 mg/kg) for `CN1CCC(c2nn(-c3ccccc3F)c3ccccc23)CC1.Cl` ?
Result: met

Reference source for all entries: patent US4853470A
